# assayed_target: T1, recombinant rat MASP1 active protease (amino acids 302-704, C-terminal His Tag) (rat, UniProt Q8CHN8 302-704)
# T1 sequence: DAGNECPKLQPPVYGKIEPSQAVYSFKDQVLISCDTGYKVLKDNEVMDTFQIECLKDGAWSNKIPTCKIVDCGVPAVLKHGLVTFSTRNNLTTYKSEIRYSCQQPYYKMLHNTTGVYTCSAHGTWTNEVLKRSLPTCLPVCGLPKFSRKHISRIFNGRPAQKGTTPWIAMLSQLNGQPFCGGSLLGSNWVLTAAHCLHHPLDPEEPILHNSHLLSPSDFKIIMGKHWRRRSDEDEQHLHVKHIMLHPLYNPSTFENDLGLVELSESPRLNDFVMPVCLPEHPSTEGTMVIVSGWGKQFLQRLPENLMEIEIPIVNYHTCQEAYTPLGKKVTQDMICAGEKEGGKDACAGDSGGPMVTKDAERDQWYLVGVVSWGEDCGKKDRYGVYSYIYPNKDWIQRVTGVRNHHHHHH
# test_name: cell-based or functional assay
Bridge positions count the residues as written; N and C are the ends. Square brackets hold non-standard residues; d marks the D form. Ends that are not written are not given here. Oic = O=C(O)[C@@H]1C[C@@H]2CCCC[C@@H]2N1; Pen = CC(C)(S)[C@H](N)C(=O)O; Sar = CNCC(=O)O
value_kind: rat MASP1 IC50
The reply should consist of the numeric value with the unit placed after it.

Note down rat MASP1 IC50 recorded for [Sar]ICSRSLP[Oic]I[Pen]IPY-OH (disulfide 3-11; N-terminus assumed; SMILES CC[C@H](C)[C@H](NC(=O)CNC)C(=O)N[C@H]1CSSC(C)(C)[C@@H](C(=O)N[C@H](C(=O)N2CCC[C@H]2C(=O)N[C@@H](Cc2ccc(O)cc2)C(=O)O)[C@@H](C)CC)NC(=O)[C@H]([C@@H](C)CC)NC(=O)[C@@H]2C[C@@H]3CCCC[C@@H]3N2C(=O)[C@@H]2CCCN2C(=O)[C@H](CC(C)C)NC(=O)[C@H](CO)NC(=O)[C@H](CCCNC(=N)N)NC(=O)[C@H](CO)NC1=O) [Example 493: ((N-Me)G)-IC+SRSLP-(Oic)-I-(Pen)+IPY-OH]
44 nM

Data provenance: patent US20210246166A1
